molecular target: T1, soluble human Lag3-IgG1-Fc with biotinylated C-terminal Avi-tag (human, biotin on the C-terminal Avi-tag); experiment: A375 MHCII competition ELISA at 3 µg/ml, biotinylated Lag3 250 ng/ml; competitor MHCII on A375 cells
T1 construct: also called LAG3-Fc-avi; biotinylated LAG3-Fc antigen
measurement.type: % Inhibition (%)
One number for each entry, in %.

[ask] Which % Inhibition is listed for bivalent P10C3 aVH-Fc (Fc fusion) EVQLVESGGGLVQPGGSLRLSCAASGFNIKDTCIGWVRRAPGKGTELVAEICTDAGYTRYADSVKGRFTISADTSKNTAYLQMNSLRAEDTAVYYCAASESPSGFRYWGQGTTVTVSSGGGGSGGGGSDKTHTCPPCPAPEAAGGPSVFLFPPKPKDTLMISRTPEVTCVVVDVSHEDPEVKFNWYVDGVEVHNAKTKPREEQYNSTYRVVSVLTVLHQDWLNGKEYKCKVSNKALGAPIEKTISKAKGQPREPQVYTLPPSRDELTKNQVSLTCLVKGFYPSDIAVEWESNGQPENNYKTTPPVLDSDGSFFLYSKLTVDKSRWQQGNVFSCSVMHEALHNHYTQKSLSLSPGK ?
[reply] 84.9
